# Test system: HCT-116
# MEASUREMENT_PROTOCOL: NCI tumour cell line growth inhibition, 48 h
Calls of active or inactive are those of the source. No stated cut-off is given here; in the data, active = GI50 up to about 1.1 µM and inactive = higher. Positions of bridges follow the written chain, without caps; N, C: chain ends. Non-standard residues stand in square brackets, D forms with d. Residues, ends and D or L forms follow the SMILES beside them. *: point of attachment. Cbz = O=C(OCc1ccccc1)*; Aib = CC(C)(N)C(=O)O; OBn = c1ccc(CO*)cc1; βAla = NCCC(=O)O
RECORDED_ENDPOINT: GI50

Worked cases, GI50 given:
[
  {
    "COMPOUND": "N#CC(C(=O)/C(=N\\NC(N)=O)C(C#N)c1ccc(Cl)cc1)c1ccc(Cl)cc1 (stereo unspecified)",
    "TARGET_DESC": "HCT-116",
    "GI50": "> 100 µM (inactive)"
  },
  {
    "COMPOUND": "CC1C(NNC(N)=O)Oc2cc3c(cc2C1c1ccccc1O)OCO3 (stereo unspecified)",
    "TARGET_DESC": "HCT-116",
    "GI50": "26.2 µM (inactive)"
  },
  {
    "COMPOUND": "Cc1ncc([N+](=O)[O-])n1CCNC(=O)CCn1ccnc1[N+](=O)[O-]",
    "TARGET_DESC": "HCT-116",
    "GI50": "> 100 µM (inactive)"
  },
  {
    "COMPOUND": "COc1cccc(CCN2CCN(CCCc3ccccc3)CC2)c1",
    "TARGET_DESC": "HCT-116",
    "GI50": "53.7 µM (inactive)"
  },
  {
    "COMPOUND": "Cc1ccc(O)c(Cc2nc3ccccc3nc2-c2cccc(Br)c2)c1",
    "TARGET_DESC": "HCT-116",
    "GI50": "48.5 µM (inactive)"
  },
  {
    "COMPOUND": "O=C(NN1C(=O)C(Cl)C1c1cccc([N+](=O)[O-])c1)c1ccccc1O (stereo unspecified)",
    "TARGET_DESC": "HCT-116",
    "GI50": "> 100 µM (inactive)"
  },
  {
    "COMPOUND": "CCOc1cc(NC(C)=O)ccc1C(=O)NN1C(=O)/C(=C/c2ccco2)N=C1c1ccccc1",
    "TARGET_DESC": "HCT-116",
    "GI50": "> 100 µM (inactive)"
  },
  {
    "COMPOUND": "CCC1CN2CCc3cc(OC)c(OC)cc3C2CC1CC1c2cc(OC)c(OC)cc2CCN1C(=O)C1CCCN1C(=O)OCc1ccccc1 (stereo unspecified)",
    "TARGET_DESC": "HCT-116",
    "GI50": "13.1 µM (inactive)"
  },
  {
    "COMPOUND": "CC1(C)NC(=O)C(NC(=O)C(CC(=O)OCc2ccccc2)NC(=O)OCc2ccccc2)CCCCNC(=O)CCNC1=O (stereo unspecified) (Cbz-D(OBn)K[Aib][βAla]; lactam 2-C; configuration not given here)",
    "TARGET_DESC": "HCT-116",
    "GI50": "> 100 µM (inactive)"
  },
  {
    "COMPOUND": "COc1c(Br)cc(/C=C(\\C#N)c2ccccn2)cc1Br",
    "TARGET_DESC": "HCT-116",
    "GI50": "30.3 µM (inactive)"
  }
]

Can you share its GI50? I mean this compound: COC1(OC)CC2C(=O)N(Cc3ccccc3)C1C=C2S(=O)(=O)c1ccccc1 (stereo unspecified)
13.8 µM (inactive)

Now give it for `O=C1C(=CNC(=S)c2ccccc2)C(=O)c2ccccc21` too.
46.7 µM (inactive)

Now give it for O=C1C2CCCC2N1Cc1ccccc1 (stereo unspecified) too.
> 100 µM (inactive)

Now give it for `Cn1c(=O)nc2n(-c3ccc(Cl)cc3Cl)c3ccccc3nc-2c1=O` too.
2.18 µM (inactive)
